Assign melting point to each entry below.

Worked examples follow.
> print(dat)
                                   molecule  observation.type  value.observed
1  Cc1ccc(-c2ccc3c(c2)C=C(C(=O)Nc2ccc(CN4CCCCC4)cc2)CCS3)cc1     melting point   203 to 204 °C
2  Cc1ccc(-c2cccc(/C=C/C(=O)Nc3ccc(C(O)c4cccc[n+]4[O-])cc3)c2)cc1 (centres unmarked)     melting point   165 to 167 °C
3  O=C(Nc1ccc(CN2CCOCC2)cc1)C1=Cc2cc(-c3ccccc3)ccc2CC1     melting point   186 to 187 °C

For each listed entry, give its melting point.
1. COc1cccnc1C(O)c1ccc(NC(=O)C2=Cc3cc(-c4ccc(C)cc4)ccc3OCC2)cc1 (centres unmarked)
2. Cc1ccc(-c2ccc3c(c2)C=C(C(=O)Nc2ccc(CNCC4CCCCC4)cc2)CCO3)cc1
3. Cc1ccc(-c2cccc(/C=C/C(=O)Nc3ccc(CN(C)CC#N)cc3)c2)cc1

1. 232 to 233 °C
2. 154 to 155 °C
3. 163 to 165 °C

Provide each entry's melting point from the list below.
1. CN(Cc1ccc(NC(=O)C2=Cc3cc(-c4ccc(N5CCOCC5)cc4)ccc3SCC2)cc1)C1CCOCC1
2. CCCP(=O)(CCC)Cc1ccc(NC(=O)/C=C/c2cccc(-c3ccc(C)cc3)c2)cc1

1. 255 to 259 °C
2. 225 to 227 °C
